- subject.of.test: rat testicular 17(alpha)-hydroxylase/C17,20-lyase (Rattus norvegicus, UniProt P11715)
- Construct: rat testicular homogenates (prepared from 220-250g adult male Sprague-Dawley rats); from tissue; host or cells: testes of adult male Sprague-Dawley rats, homogenate
- Sequence (P11715 whole entry): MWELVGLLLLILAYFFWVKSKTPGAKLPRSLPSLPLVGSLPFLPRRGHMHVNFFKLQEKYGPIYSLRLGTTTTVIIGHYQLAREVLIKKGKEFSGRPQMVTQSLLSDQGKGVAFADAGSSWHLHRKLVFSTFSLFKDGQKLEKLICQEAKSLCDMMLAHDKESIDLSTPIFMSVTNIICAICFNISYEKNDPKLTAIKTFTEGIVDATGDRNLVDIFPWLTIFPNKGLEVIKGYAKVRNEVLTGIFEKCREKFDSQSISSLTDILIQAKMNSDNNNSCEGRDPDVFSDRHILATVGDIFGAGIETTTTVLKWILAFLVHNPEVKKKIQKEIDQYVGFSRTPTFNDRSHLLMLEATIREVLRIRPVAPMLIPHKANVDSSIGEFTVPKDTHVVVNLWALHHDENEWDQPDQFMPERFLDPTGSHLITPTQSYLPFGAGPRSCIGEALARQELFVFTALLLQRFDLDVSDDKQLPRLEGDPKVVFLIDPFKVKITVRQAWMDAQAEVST
- assay: Hydroxylase/lyase assay, rat testicular homogenates, [21-14C]progesterone (Example 4, Table 3)
- Format: biochemical
- condition: 0.75 h; [I] = [S]; progesterone 40uM, pH 7.4, 45 min, 37 C; read-out: Inhibition of 17(alpha)-hydroxylase/C17,20-lyase (%), [I] = [S]
What inhibition at 40 µM was measured for each of the following?
Answers are plain numbers, in %.

CC(=NN(C)C)C1=CC[C@H]2[C@@H]3CC=C4C[C@@H](O)CC[C@]4(C)[C@H]3CC[C@]12C [Compound I-14]; 10.2
CC(=O)OC1=CC2=CC[C@H]3[C@@H]4CC[C@H]([C@H](C)C#N)[C@@]4(C)CC[C@@H]3[C@@]2(C)CC1 [Compound I-24]; 33.6
CC(=O)[C@@]12O[C@@H]1C[C@H]1[C@@H]3CCC4=CC(=O)CC[C@]4(C)[C@H]3CC[C@@]12C [Compound I-18]; 26.5

Below are some molecules; for each one, tell me its inhibition at 40 µM.
1. CC(=NN)[C@H]1CC[C@H]2[C@@H]3CC=C4C[C@@H](O)CC[C@]4(C)[C@H]3CC[C@]12C [Compound I-12]
2. C[C@H](C=NN(C)C)[C@H]1CC[C@H]2[C@@H]3CCC4=CC(=O)CC[C@]4(C)[C@H]3CC[C@]12C [Compound I-15]

Ans:
1: 8.55; 2: 22.4

Entry source: patent US5264427A
